From: the supplement of paper PMC10724198

Test system: Saccharomyces cerevisiae
methodDescription: protein stability index of tFT-peptide fusion (C-terminal peptide) (PSI (0-1 scale)); higher = more stable (slower turnover)
conditionContext: genetic background: wild type; temperature: 30 C
observable: protein stability index

As a guide, the following entries are already answered.
What does the data say about its protein stability index? Entry: "QQPPSSGTPDNH"
0.703

Now the sequence "GWALGRAGASGA"
0.701

Could you do the same for "FLQIPVQILPDP" , please?
0.705

# repeat for "GMSRLFTYRAAS"
0.72

Now give it for "CIFCCGWCLDRL" too.
0.719

Others:
Tell me the measured protein stability index of "RRPAPTRPPHTK" , please.
0.711

Further, for "DIISSKENWVEI" ?
0.68

What do we get for "FSLTPSDPFPPA" ?
0.681

Quick one: "QNIGPKEESVLA"
0.682

Also "NGGRCRIARVLE" , if possible.
0.679

* * *

Tested on: Saccharomyces cerevisiae
methodDescription: protein stability index of tFT-peptide fusion (C-terminal peptide) (PSI (0-1 scale)); higher = more stable (slower turnover)
conditionContext: genetic background: wild type; temperature: 30 C
observable: protein stability index
// return just the number, without any unit appended

Field: example entries. Status: answers known.
protein stability index for DGKVIYELEDKE [GET3 C-terminal 12 aa] ?
0.675

Please do the same for DYKLLKELASQV [GLT1 C-terminal 12 aa] as well.
0.635

Likewise for ANHNNQRAGYFL [SIT4 C-terminal 12 aa] ?
0.652

Next sequence: RAMNEDETLRNL [ORC1 C-terminal 12 aa]
0.746

***
Please look up its protein stability index: QNADEESSSEEE [GCD6 C-terminal 12 aa]
0.686

Also check SRRRPFIGPETV [YMR057C C-terminal 12 aa]
0.703

Request: ILISTIYAHCSS [HFD1 C-terminal 12 aa]
0.489

Please give the result for AANAEILSKINK [POX1 C-terminal 12 aa] too.
0.683

Also need EIRNMVINSTKD [BFA1 C-terminal 12 aa] , thanks.
0.688

Next up: EKKIATRGAFAC [MCO32 C-terminal 12 aa]
0.7

* * *

Tested on: Saccharomyces cerevisiae
methodDescription: protein stability index of tFT-peptide fusion (C-terminal peptide) (PSI (0-1 scale)); higher = more stable (slower turnover)
conditionContext: genetic background: wild type; temperature: 30 C
observable: protein stability index

Fill in: protein stability index of CFLIGSSDTTSL [OPI6 C-terminal 12 aa] is ___
0.691

New cases:
Query (sequence): INFHSGSIFDAC [ENV11 C-terminal 12 aa] ; field requested: protein stability index
0.701

HKTNLTRGSFYS [YIR020W-A C-terminal 12 aa] , same question.
0.708

* * *

Known protein stability index of a selection of sequences
Test system: Saccharomyces cerevisiae
methodDescription: protein stability index of tFT-peptide fusion (C-terminal peptide) (PSI (0-1 scale)); higher = more stable (slower turnover)
conditionContext: genetic background: doa10 deletion; temperature: 30 C

Example sequences with recorded protein stability index:
What is its protein stability index for Saccharomyces cerevisiae? Entry: "AIPRWLALLVAH"
0.13

Try this sequence next: "LLVKFTFLIIFT"
0.27

And for "LGIPKLLCFVCT" ?
0.248

Ok, now "SYVLLQSYVSLV"
0.318

Could you do the same for "RLVYSQKRWSLF" , please?
0.167

What about "VGAYSVVYVVFS" ?
0.272

Would you mind doing "CFVFYALFGFAV" as well?
0.252

Another sequence to check: "RWELASKCRLCV"
0.148

Repeat for the following sequence: "WLFRASSFNWVI"
0.0843

Try this sequence next: "FLSPPPFLALLP"
0.691

Next:
For the record "RGWNGFWVVVVW" , what value of protein stability index is listed for Saccharomyces cerevisiae?
0.213

Now consider "IMWCSSVSEVQW" .
0.492

Quick one: "WVGVVLLSVVGG"
0.164

How about this sequence: "LPSPLLFLPALF"
0.405

Record: "FELVWLCIIGAL"
0.106
